# Test system: HeLa
# Experiment Summary: Cytotoxicity against human HeLa cells assessed as inhibition of cell growth incubated for 72 hrs by MTT assay
# Format: functional, cell-based
Friendly reminder: IC50 below 0.6 µM is yes (1), at or above is no (0).

COc1ccc(C2=CC(=O)O/C2=C\c2ccc(NC(C)=O)cc2)cc1	no (0)

[Q] Item "COc1ccc(C2=CC(=O)O/C2=C\c2ccc3[nH]ccc3c2)cc1" : IC50 beneath 0.6 µM, strictly?
[A] yes (1)

[Q] What about this compound? "COc1cccc2c1C(=O)c1c(O)c3c(c(O)c1C2=O)C[C@@](O)(C(=O)CO)C[C@@H]3O[C@H]1C[C@H](N)[C@H](O)[C@H](C)O1"
[A] yes (1)

----------
# Test system: MCF7
# Experiment Summary: Cytotoxicity against human MCF7 cells assessed as inhibition of cell growth incubated for 72 hrs by MTT assay
# Format: functional, cell-based
# Experimental Setup: MCF7, 72 h
Measured Metric: pIC50
By convention, pIC50 is the negative base-10 log of a molar concentration.

Reference set, count: 3
COc1ccc(C2=CC(=O)O/C2=C\c2ccc(O)c(O)c2)cc1	5.60
COc1ccc(C2=CC(=O)O/C2=C\c2ccc(NC(C)=O)cc2)cc1	5.21
COc1ccc(/C=C2\OC(=O)C=C2c2ccc(OC)cc2)cc1	5.37

[Q] Param item = "COc1ccc(C2=CC(=O)O/C2=C\c2ccc(O)c(OC)c2)cc1" ; retrieve measured pIC50.
[A] 7.00

[Q] What about this compound? "COc1ccc(C2=CC(=O)O/C2=C\c2ccc(O)cc2)cc1"
[A] 6.00

[Q] What about this compound? "COc1ccc(C2=CC(=O)O/C2=C\c2ccccc2)cc1"
[A] 5.92

[Q] What about this compound? "COc1ccc(C2=CC(=O)O/C2=C\c2ccc3[nH]ccc3c2)cc1"
[A] 5.89

----------
# Experiment Summary: Selectivity index, ratio of IC50 for HHL-5 cells to IC50 for human HeLa cells
# Format: toxicity
# Experimental Setup: HHL-5 cells and HeLa cells, pooled result: one value given for 6 cell lines, strains, targets or settings, read-out: Ratio IC50
Measured Metric: selectivity ratio
The answer should be written as a number, with no unit following it.

[Q] Param item = "COc1ccc(C2=CC(=O)O/C2=C\c2ccc(O)cc2)cc1" ; retrieve measured selectivity ratio.
[A] 2.6

----------
The entries below are paired with their reported IC50 at 72 h.
# Experiment Summary: Cytotoxicity against HHL-5 cells assessed as inhibition of cell growth incubated for 72 hrs by MTT assay
# Type: toxicity, cell-based
# Experimental Setup: human

COc1ccc(C2=CC(=O)O/C2=C\c2ccc(O)cc2)cc1	6.3 µM
COc1ccc(C2=CC(=O)O/C2=C\c2ccc3[nH]ccc3c2)cc1	1.3 µM
COc1cccc2c1C(=O)c1c(O)c3c(c(O)c1C2=O)C[C@@](O)(C(=O)CO)C[C@@H]3O[C@H]1C[C@H](N)[C@H](O)[C@H](C)O1	7.2 µM
COc1ccc(C2=CC(=O)O/C2=C\c2ccc(O)c(O)c2)cc1	11.3 µM
COc1ccc(C2=CC(=O)O/C2=C\c2ccc(NC(C)=O)cc2)cc1	5.5 µM

[Q] Param item = "COc1ccc(/C=C2\OC(=O)C=C2c2ccc(OC)cc2)cc1" ; retrieve measured IC50 at 72 h.
[A] 3.9 µM

[Q] What about this molecule? "COc1ccc(C2=CC(=O)O/C2=C\c2ccccc2)cc1"
[A] 1.6 µM

[Q] What about this molecule? "COc1ccc(C2=CC(=O)O/C2=C\c2ccc(O)c(OC)c2)cc1"
[A] 1.9 µM
